# Tested on: BDF1 mice, P388 leukemia ip, median survival T/C
# experiment_summary: NCI In Vivo Anticancer Drug Screen. Data for tumor model P388 Leukemia (intraperitoneal) in B6D2F1 (BDF1) mice
# measurement_parameters: endpoint: median survival time; dose: 150.0 mg/kg/injection; schedule: Q01DX009 (ip); vehicle: saline with Tween-80; higher = longer survival
# Description: The antitumor activity of compounds was measured in mice bearing transplantable tumors. Survival or tumor size were measured and the results are expressed as the measurement made in the treated group (T) divided by the measurement made in the vehicle treated control group (C). The tumor model used in this assay is P388 Leukemia (intraperitoneal) in B6D2F1 (BDF1) mice
Inconclusive results and toxic doses are left out.

[
  {
    "compound": "COc1cccn(C/C=C(\\C)CCC=C(C)C)c1=O",
    "system_tested": "BDF1 mice, P388 leukemia ip, median survival T/C",
    "T/C": "116 % of control"
  },
  {
    "compound": "Cc1ccn(/C(N)=N/C(=S)Nc2ccccc2)n1",
    "system_tested": "BDF1 mice, P388 leukemia ip, median survival T/C",
    "T/C": "114 % of control"
  },
  {
    "compound": "COc1ccc(OC)c(NC(=O)C2CC2)c1",
    "system_tested": "BDF1 mice, P388 leukemia ip, median survival T/C",
    "T/C": "100 % of control"
  },
  {
    "compound": "CC(C)(C(Cl)Cl)S(=O)(=O)O (tested in a mixture with another compound)",
    "system_tested": "BDF1 mice, P388 leukemia ip, median survival T/C",
    "T/C": "100 % of control"
  },
  {
    "compound": "O=NN(CCBr)C(=O)NC1CCCCC1",
    "system_tested": "BDF1 mice, P388 leukemia ip, median survival T/C",
    "T/C": "95 % of control"
  }
]

###

# Test system: BDF1 mice, P388 leukemia ip, median survival T/C
# experiment_summary: NCI In Vivo Anticancer Drug Screen. Data for tumor model P388 Leukemia (intraperitoneal) in B6D2F1 (BDF1) mice
# measurement_parameters: endpoint: median survival time; dose: 200.0 mg/kg/injection; schedule: Q01DX009 (ip); vehicle: saline with Tween-80
Toxic doses and inconclusive results are not listed. The calls were made as follows: active = survival T/C of 150% or more; inactive = T/C below 125% in these data.
Outcome codes: active, inactive

[
  {
    "compound": "CC(=O)N1CCCCCC1=O",
    "system_tested": "BDF1 mice, P388 leukemia ip, median survival T/C",
    "discrete_label": "inactive"
  },
  {
    "compound": "Cc1[o+]c(C)c2c(c1C)-c1ccccc1C2=O",
    "system_tested": "BDF1 mice, P388 leukemia ip, median survival T/C",
    "discrete_label": "inactive"
  },
  {
    "compound": "Clc1ccccc1-c1nc(-c2ccncc2)no1",
    "system_tested": "BDF1 mice, P388 leukemia ip, median survival T/C",
    "discrete_label": "inactive"
  },
  {
    "compound": "CC(C(=O)c1cc(O)c(O)cc1C(O)(C(F)(F)F)C(F)(F)F)C(O)(C(F)(F)F)C(F)(F)F (configuration not stated)",
    "system_tested": "BDF1 mice, P388 leukemia ip, median survival T/C",
    "discrete_label": "inactive"
  },
  {
    "compound": "CCCCCCC(=O)/C=C/c1ccccc1Cl",
    "system_tested": "BDF1 mice, P388 leukemia ip, median survival T/C",
    "discrete_label": "inactive"
  },
  {
    "compound": "CS(=O)(=O)OCCN(Cc1ccc(OS(C)(=O)=O)cc1)S(C)(=O)=O",
    "system_tested": "BDF1 mice, P388 leukemia ip, median survival T/C",
    "discrete_label": "inactive"
  },
  {
    "compound": "COC(CN1C(=O)CSC1=S)OC",
    "system_tested": "BDF1 mice, P388 leukemia ip, median survival T/C",
    "discrete_label": "inactive"
  },
  {
    "compound": "O=C(Cl)c1ccc(N2C(=O)c3ccccc3C2=O)cc1[N+](=O)[O-]",
    "system_tested": "BDF1 mice, P388 leukemia ip, median survival T/C",
    "discrete_label": "inactive"
  },
  {
    "compound": "O=C(CC(NC(=O)OCc1ccccc1)C(=O)OCc1ccccc1)OCc1ccccc1 (configuration not stated)",
    "system_tested": "BDF1 mice, P388 leukemia ip, median survival T/C",
    "discrete_label": "inactive"
  },
  {
    "compound": "C=CC(C)(C(=O)O)C(C)C (configuration not stated)",
    "system_tested": "BDF1 mice, P388 leukemia ip, median survival T/C",
    "discrete_label": "inactive"
  },
  {
    "compound": "O=C(O)c1ccc(-c2ccc(C(=O)O)cc2I)c(I)c1",
    "system_tested": "BDF1 mice, P388 leukemia ip, median survival T/C",
    "discrete_label": "inactive"
  },
  {
    "compound": "CN(C)c1ccc(Sc2ccc3nc(N)nc(N)c3c2)cc1",
    "system_tested": "BDF1 mice, P388 leukemia ip, median survival T/C",
    "discrete_label": "active"
  }
]

###

# Test system: BDF1 mice, P388 leukemia ip, median survival T/C
# experiment_summary: NCI In Vivo Anticancer Drug Screen. Data for tumor model P388 Leukemia (intraperitoneal) in B6D2F1 (BDF1) mice
# measurement_parameters: endpoint: median survival time; dose: 100.0 mg/kg/injection; schedule: Q04DX003 (ip); vehicle: saline with Tween-80; higher = longer survival
Inconclusive results and toxic doses are left out.
readout: T/C

[
  {
    "smiles_str": "Cc1cc(NC(=O)c2ccccc2)c(Cl)cc1N",
    "system_tested": "BDF1 mice, P388 leukemia ip, median survival T/C",
    "val": "95 % of control"
  },
  {
    "smiles_str": "Cc1ccc(C)c(CCN)c1",
    "system_tested": "BDF1 mice, P388 leukemia ip, median survival T/C",
    "val": "100 % of control"
  },
  {
    "smiles_str": "O=C1OCc2cc3ccccc3nc21",
    "system_tested": "BDF1 mice, P388 leukemia ip, median survival T/C",
    "val": "109 % of control"
  },
  {
    "smiles_str": "Cc1ccc2ccccc2c1Cc1c(C=O)[nH]c(=S)[nH]c1=O",
    "system_tested": "BDF1 mice, P388 leukemia ip, median survival T/C",
    "val": "104 % of control"
  },
  {
    "smiles_str": "O=C(O)c1ccccc1C(=O)Nc1cc(C(F)(F)F)ccc1Cl",
    "system_tested": "BDF1 mice, P388 leukemia ip, median survival T/C",
    "val": "90 % of control"
  },
  {
    "smiles_str": "Cc1cc(C)c(S(=O)(=O)O)cc1C",
    "system_tested": "BDF1 mice, P388 leukemia ip, median survival T/C",
    "val": "100 % of control"
  },
  {
    "smiles_str": "[O]=[Sb]([c]1ccccc1)([c]1ccccc1)[c]1ccccc1",
    "system_tested": "BDF1 mice, P388 leukemia ip, median survival T/C",
    "val": "114 % of control"
  }
]

###

Recorded T/C, one value per entry.
# Test system: BDF1 mice, P388 leukemia ip, median survival T/C
# experiment_summary: NCI In Vivo Anticancer Drug Screen. Data for tumor model P388 Leukemia (intraperitoneal) in B6D2F1 (BDF1) mice
# measurement_parameters: endpoint: median survival time; dose: 400.0 mg/kg/injection; schedule: Q01DX009 (ip); vehicle: water; higher = longer survival
Inconclusive results and toxic doses are left out.

[
  {
    "compound": "CCOC(=O)C1=C(Nc2ccccc2)CSC1",
    "system_tested": "BDF1 mice, P388 leukemia ip, median survival T/C",
    "T/C": "91 % of control"
  },
  {
    "compound": "O=c1[nH]c2ccccc2c(=O)n1C1CCCCC1",
    "system_tested": "BDF1 mice, P388 leukemia ip, median survival T/C",
    "T/C": "101 % of control"
  },
  {
    "compound": "COC1=C(O)C(C(O)CO)OC1=O (centres undefined)",
    "system_tested": "BDF1 mice, P388 leukemia ip, median survival T/C",
    "T/C": "100 % of control"
  },
  {
    "compound": "O=C(c1c(F)c(F)c(F)c(F)c1F)N1CC1",
    "system_tested": "BDF1 mice, P388 leukemia ip, median survival T/C",
    "T/C": "100 % of control"
  }
]

###

# Test system: BDF1 mice, P388 leukemia ip, median survival T/C
# experiment_summary: NCI In Vivo Anticancer Drug Screen. Data for tumor model P388 Leukemia (intraperitoneal) in B6D2F1 (BDF1) mice
# measurement_parameters: endpoint: median survival time; dose: 2.5 mg/kg/injection; schedule: Q01DX009 (ip); vehicle: saline; higher = longer survival
Inconclusive results and toxic doses are left out. Non-standard residues stand in square brackets, D forms with d. Residues, ends and D or L forms follow the SMILES beside them. ξ: configuration not given here. ξLac(3-iPr) = CC(C)CC(O)C(=O)O; NMeV = CN[CH](C(=O)O)C(C)C; NMeA = CN[CH](C)C(=O)O; βAla = NCCC(=O)O
readout: T/C

[
  {
    "compound": "CC(=O)Oc1cc2cnc3c4cc(OC(C)=O)c(OC(C)=O)cc4ccc3c2cc1OC(C)=O",
    "val": "97 % of control"
  },
  {
    "compound": "N#CC(Br)(Br)C(N)=O",
    "val": "115 % of control"
  },
  {
    "compound": "CS(=O)(=O)Nc1ccc(Nc2c3ccccc3nc3cc(N)ccc23)cc1",
    "val": "97 % of control"
  },
  {
    "compound": "CCC(C)C1NC(=O)C2CCCN2C(=O)C(CC(C)C)OC(=O)CCNC(=O)C(C)N(C)C(=O)C(C(C)C)N(C)C1=O (stereo not given) (cyclo([ξLac(3-iPr)]PI[NMeV][NMeA][βAla]); configuration not given here)",
    "val": "96 % of control"
  },
  {
    "compound": "NC(=O)c1ccc[n+](Cc2c(Cl)cccc2Cl)c1",
    "val": "96 % of control"
  }
]
